assay: Inhibition of NS5B polymerase in HCV genotype 4A infected in HuH7 cells after 40 hrs by Taqman probe based RT-PCR analysis
The compounds listed here are annotated with their EC50.

| compound | readout unit | EC50 |
| --- | --- | --- |
| CNC(=O)c1c(-c2ccc(F)cc2)oc2cc(N(C)S(C)(=O)=O)c(-c3ccc4c(n3)-c3cc5c(F)cccc5n3CC4)cc12 [US9243002, 85] | nM | 1.2 |
| CNC(=O)c1c(-c2ccc(F)cc2)oc2cc(N(C)S(C)(=O)=O)c(-c3ccc4ccn5c6cccc(F)c6cc5c4n3)cc12 [US9243002, 82] | nM | 1.2 |
| CNC(=O)c1c(-c2ccc(F)cc2)oc2cc(N(C)S(C)(=O)=O)c(-c3ccc4ncn5c6cccc(F)c6cc5c4n3)cc12 | nM | 0.63 |
| CNC(=O)c1c(-c2ccc(F)cc2)oc2cc(N(C)S(C)(=O)=O)c(-c3cc4n(c(=O)c3)CCn3c-4cc4c(F)cccc43)cc12 | nM | 1.5 |
| CNC(=O)c1c(-c2ccc(F)cc2)oc2cc(N(C)S(C)(=O)=O)c(-c3ccc4c(n3)-c3cc5c(F)cccc5n3C4)cc12 [US9243002, 88] | nM | 2.7 |
| CNC(=O)c1c(-c2ccc(F)cc2)oc2cc(N(C)S(C)(=O)=O)c(-c3ccc4c(n3)-c3cc5c(F)cccc5n3CN4)cc12 | nM | 1.1 |
| CNC(=O)c1c(-c2ccc(F)cc2)oc2cc(N(C)S(C)(=O)=O)c(-c3ccc4c(n3)-c3cc5c(F)cccc5n3CCC4)cc12 [US9243002, 72] | nM | 1.5 |
| CNC(=O)c1c(-c2ccc(F)cc2)oc2cc(N(C)S(C)(=O)=O)c(-c3ccc4c(n3)-c3cc5c(F)cccc5n3CCCC4)cc12 [US9243002, 99] | nM | 3.5 |
